- Assay Details: clinical
- Condition Details: human, in vivo, 12 mg/m2, AUCinf
Measure Name: AUC(0-inf) (ng·h/mL)
Give the quantity in ng·h/mL, number only.

[Q] Look up and state reported AUC(0-inf) for CN[C@H]1CN(c2ccc3c(=O)c(C(=O)O)cn(-c4nccs4)c3n2)C[C@@H]1OC [SNS-595]
[A] 6810

###

- Assay Details: clinical
- Condition Details: both sexes, human, in vivo, 27 mg/m2
Measure Name: half-life

[Q] Look up and state reported half-life for CN[C@H]1CN(c2ccc3c(=O)c(C(=O)O)cn(-c4nccs4)c3n2)C[C@@H]1OC
[A] 22 h

###

- Assay Details: clinical
- Condition Details: human, in vivo, 75 mg/m2, AUCinf
Measure Name: AUC(0-inf) (ng·h/mL)
Give the quantity in ng·h/mL, number only.

[Q] Look up and state reported AUC(0-inf) for CN[C@H]1CN(c2ccc3c(=O)c(C(=O)O)cn(-c4nccs4)c3n2)C[C@@H]1OC
[A] 46100

###

- Assay Details: clinical
- Condition Details: human, in vivo, 6 mg/m2, AUCinf
Measure Name: AUC(0-inf) (ng·h/mL)
Give the quantity in ng·h/mL, number only.

[Q] Look up and state reported AUC(0-inf) for CN[C@H]1CN(c2ccc3c(=O)c(C(=O)O)cn(-c4nccs4)c3n2)C[C@@H]1OC
[A] 2090

###

- Assay Details: clinical
- Condition Details: human, in vivo, T ½, Range
Measure Name: half-life

[Q] Look up and state reported half-life for CN[C@H]1CN(c2ccc3c(=O)c(C(=O)O)cn(-c4nccs4)c3n2)C[C@@H]1OC [SNS-595]
[A] 10 to 33 h

###

- Assay Details: clinical
- Condition Details: human, in vivo, terminal half-life
Measure Name: half-life

[Q] Look up and state reported half-life for CN[C@H]1CN(c2ccc3c(=O)c(C(=O)O)cn(-c4nccs4)c3n2)C[C@@H]1OC
[A] ~19 h

###

- Assay Details: clinical
- Condition Details: human, in vivo, terminal half-life (T1/2), range
Measure Name: half-life

[Q] Look up and state reported half-life for CN[C@H]1CN(c2ccc3c(=O)c(C(=O)O)cn(-c4nccs4)c3n2)C[C@@H]1OC
[A] 13 to 49 h

###

- Assay Details: clinical
- Condition Details: human, in vivo, 12 mg/m2, Cmax
Measure Name: Cmax

[Q] Look up and state reported Cmax for CN[C@H]1CN(c2ccc3c(=O)c(C(=O)O)cn(-c4nccs4)c3n2)C[C@@H]1OC [SNS-595]
[A] 1.84 µg/mL

###

- Assay Details: clinical
- Condition Details: human, in vivo, 18 mg/m2, AUCinf
Measure Name: AUC(0-inf) (ng·h/mL)
Give the quantity in ng·h/mL, number only.

[Q] Look up and state reported AUC(0-inf) for CN[C@H]1CN(c2ccc3c(=O)c(C(=O)O)cn(-c4nccs4)c3n2)C[C@@H]1OC
[A] 8500

###

- Assay Details: clinical
- Condition Details: human, in vivo, 18 mg/m2, Cmax
Measure Name: Cmax (ng/mL)
Give the quantity in ng/mL, number only.

[Q] Look up and state reported Cmax for CN[C@H]1CN(c2ccc3c(=O)c(C(=O)O)cn(-c4nccs4)c3n2)C[C@@H]1OC
[A] 1690

###

- Assay Details: clinical
- Condition Details: human, in vivo, 3 mg/m2, T ½
- Protocol: SNS-595 was administered to patients with advanced solid cancers as an IV infusion over 10 minutes on 2 schedules. In the first schedule (A), a weekly dose of SNS-595 was administered for three weeks followed by at least 7 days off (qwk×3). […] For patients dosed according to schedule A, PK samples were collected on treatment Days 1 and 15 and were assayed using noncompartmental analysis. Plasma SNS-595 concentrations were determined using a validated LC-MS/MS assay. […]
Measure Name: half-life (h)
Give the quantity in h, number only.

[Q] Look up and state reported half-life for CN[C@H]1CN(c2ccc3c(=O)c(C(=O)O)cn(-c4nccs4)c3n2)C[C@@H]1OC
[A] 23.3

###

- Assay Details: clinical
- Condition Details: human, in vivo, terminal half-life (T1/2)
Measure Name: half-life

[Q] Look up and state reported half-life for CN[C@H]1CN(c2ccc3c(=O)c(C(=O)O)cn(-c4nccs4)c3n2)C[C@@H]1OC [SNS-595]
[A] ~21 h

###

- Assay Details: clinical
- Condition Details: human, in vivo, 6 mg/m2, Cmax
Measure Name: Cmax (ng/mL)
Give the quantity in ng/mL, number only.

[Q] Look up and state reported Cmax for CN[C@H]1CN(c2ccc3c(=O)c(C(=O)O)cn(-c4nccs4)c3n2)C[C@@H]1OC [SNS-595]
[A] 531

###

- Assay Details: clinical
- Condition Details: both sexes, human, in vivo, 27 mg/m2
Measure Name: AUC(0-inf) (ng·h/mL)
Give the quantity in ng·h/mL, number only.

[Q] Look up and state reported AUC(0-inf) for CN[C@H]1CN(c2ccc3c(=O)c(C(=O)O)cn(-c4nccs4)c3n2)C[C@@H]1OC
[A] 17800

###

- Assay Details: clinical
- Condition Details: human, in vivo, T1/2 ± SD
Measure Name: half-life (h)
Give the quantity in h, number only.

[Q] Look up and state reported half-life for CN[C@H]1CN(c2ccc3c(=O)c(C(=O)O)cn(-c4nccs4)c3n2)C[C@@H]1OC
[A] 22

###

- Assay Details: clinical
- Condition Details: human, in vivo, T1/2, averaged
Measure Name: half-life
Number plus unit, in that order.

[Q] Look up and state reported half-life for CN[C@H]1CN(c2ccc3c(=O)c(C(=O)O)cn(-c4nccs4)c3n2)C[C@@H]1OC [SNS-595]
[A] 19 h

###

- Assay Details: clinical
- Condition Details: human, in vivo, 24 mg/m2, AUCinf
Measure Name: AUC(0-inf) (ng·h/mL)
Give the quantity in ng·h/mL, number only.

[Q] Look up and state reported AUC(0-inf) for CN[C@H]1CN(c2ccc3c(=O)c(C(=O)O)cn(-c4nccs4)c3n2)C[C@@H]1OC [SNS-595]
[A] 15200

###

- Assay Details: clinical
- Condition Details: human, in vivo, T ½, Average
Measure Name: half-life
Number plus unit, in that order.

[Q] Look up and state reported half-life for CN[C@H]1CN(c2ccc3c(=O)c(C(=O)O)cn(-c4nccs4)c3n2)C[C@@H]1OC
[A] 18.5 h

###

- Assay Details: clinical
- Condition Details: human, in vivo, 36 mg/m2, Cmax
Measure Name: Cmax (ng/mL)
Give the quantity in ng/mL, number only.

[Q] Look up and state reported Cmax for CN[C@H]1CN(c2ccc3c(=O)c(C(=O)O)cn(-c4nccs4)c3n2)C[C@@H]1OC
[A] 3380

###

- Assay Details: clinical
- Condition Details: human, in vivo, 36 mg/m2, AUCinf
- Experimental: SNS-595 was administered to patients with advanced solid cancers as an IV infusion over 10 minutes on 2 schedules. In the first schedule (A), a weekly dose of SNS-595 was administered for three weeks followed by at least 7 days off (qwk×3). […] For patients dosed according to schedule A, PK samples were collected on treatment Days 1 and 15 and were assayed using noncompartmental analysis. Plasma SNS-595 concentrations were determined using a validated LC-MS/MS assay. […]
Measure Name: AUC(0-inf) (ng·h/mL)
Give the quantity in ng·h/mL, number only.

[Q] Look up and state reported AUC(0-inf) for CN[C@H]1CN(c2ccc3c(=O)c(C(=O)O)cn(-c4nccs4)c3n2)C[C@@H]1OC
[A] 18000

###

- Assay Details: clinical
- Condition Details: human, in vivo, 6 mg/m2, T ½
Measure Name: half-life
Number plus unit, in that order.

[Q] Look up and state reported half-life for CN[C@H]1CN(c2ccc3c(=O)c(C(=O)O)cn(-c4nccs4)c3n2)C[C@@H]1OC
[A] 13.5 h

###

- Assay Details: clinical
- Condition Details: both sexes, human, in vivo, 13.5 mg/m2
- Protocol: SNS-595 was administered to patients with advanced or refractory acute leukemias as a slow IV push. Diagnoses included AML (19 patients) and ALL (2 patients). All patients had disease refractory to or relapsed from prior therapy (median 3 prior regimens (range 1-6)). A total of 21 patients (9 female and 12 male; median age=64 yrs, range 21-80) were treated in five cohorts using two schedules. […] Plasma SNS-595 concentrations were determined using a validated LC-MS/MS assay. […]
Measure Name: half-life (h)
Give the quantity in h, number only.

[Q] Look up and state reported half-life for CN[C@H]1CN(c2ccc3c(=O)c(C(=O)O)cn(-c4nccs4)c3n2)C[C@@H]1OC [SNS-595]
[A] 21

###

- Assay Details: clinical
- Condition Details: both sexes, human, in vivo, 18 mg/m2
Measure Name: AUC(0-inf) (ng·h/mL)
Give the quantity in ng·h/mL, number only.

[Q] Look up and state reported AUC(0-inf) for CN[C@H]1CN(c2ccc3c(=O)c(C(=O)O)cn(-c4nccs4)c3n2)C[C@@H]1OC
[A] 8000
